Source: patent US20190365698A1

Assay: Solubility of the active in the receptor fluid
Assay type: physicochemical
Details: not told, aqueous with cosolvent or surfactant or cyclodextrin; 96 wt % PBS at pH 7.4 and 4 wt % hydroxyl propyl beta cyclodextrin

{"ENTRY_SMILES": "CC(=O)O[C@H]1C(=O)[C@@]2(C)[C@H]([C@H](OC(=O)c3ccccc3)[C@]3(O)C[C@H](OC(=O)[C@H](O)[C@@H](NC(=O)c4ccccc4)c4ccccc4)C(C)=C1C3(C)C)[C@]1(OC(C)=O)CO[C@@H]1C[C@@H]2O", "solubility": "~0.4 µg/mL"}
